# ASSAY PROTOCOL: in vivo
# RUN CONDITIONS: rat, po, 10 mg/kg
ENDPOINT: bioavailability (%)
Number in %, nothing else.

What value of bioavailability has been recorded for this entry: `Fc1ccc(-c2cn3c(-c4ccc5[nH]ncc5c4F)c(C(F)(F)F)nc3cn2)cc1C(F)(F)F`
67

###

# ASSAY PROTOCOL: Binding in the assay medium
# Format: in vitro ADME
# RUN CONDITIONS: bovine, in vitro potency assay medium with Foetal Bovine Serum; in vitro assay medium
ENDPOINT: recovery
A complete answer gives the number followed by the unit.

Entry under review: `CC(C)c1nc2cnc(-c3ccc(F)c(C(F)(F)F)c3)cn2c1-c1c(F)cc(O)cc1F` . Reported recovery?
69.3%

###

# ASSAY PROTOCOL: In vivo efficacy, mouse model of juvenile (21-day old) S. mansoni infection
# RUN CONDITIONS: female, CD1, plasma; mouse, Juvenile infection, oral 50 mg/kg, formulation Aq; read-out: Plasma conc @24 h (efficacy experiment)
ENDPOINT: concentration at 24 h (ng/mL)
Field format: number, assumed ng/mL, no unit text.

Given the entry `CC(C)c1nc2cnc(-c3ccc(F)c(C(F)(F)F)c3)cn2c1-c1ccc2[nH]ncc2c1F` , report its measured concentration at 24 h.
505

Shifting focus to the compound that follows.
Quick one: concentration at 24 h of `CC(C)c1nc2cnc(-c3ccc(F)c(C(F)(F)F)c3)cn2c1-c1c(F)cc(O)cc1F` ?
208

###

# ASSAY PROTOCOL: Metabolic stability in mouse hepatocytes
# Format: in vitro ADME
# RUN CONDITIONS: hepatocytes (suspension), pH 7.4, 90 min incubation, read-out: Mouse hepatocyte % remaining at 90 min
ENDPOINT: remaining at 1.5 h, 1 µM (%)
Lab book: enter the figure in %, no units written.

Guide cases for remaining at 1.5 h, 1 µM, answers given:
I have this compound here, `Fc1ccc(-c2cn3c(-c4ccc5[nH]ncc5c4F)c(C(F)(F)F)nc3cn2)cc1C(F)(F)F` , and I need its recorded remaining at 1.5 h, 1 µM.
90

Thanks! And `CC(C)c1cc(-c2cn3c(-c4ccc5[nH]ncc5c4F)c(C4CC4)nc3cn2)ccc1F` ?
75

Next:
Any idea what its remaining at 1.5 h, 1 µM is? The compound is `CC(C)c1nc2cnc(-c3ccc(F)c(C(F)(F)F)c3)cn2c1-c1ccc2[nH]ncc2c1F`
80

Another compound: `CC(C)Oc1cc(-c2cn3c(-c4ccc5[nH]ncc5c4F)c(C(F)(F)F)nc3cn2)ccc1F`
31

And `CC(C)c1cc(-c2cn3c(-c4ccc5[nH]ncc5c4F)c(C(F)(F)F)nc3cn2)ccc1F` ?
78

Repeat for the following compound: `Fc1ccc(-c2cn3c(-c4ccc5[nH]ncc5c4F)c(C(F)(F)F)nc3cn2)cc1C(F)(F)C(F)(F)F`
94

Also check `CC(C)c1nc2cnc(-c3ccc(F)c(C(F)(F)F)c3)cn2c1-c1c(F)cc(O)cc1F`
44

Queued: `Fc1c(-c2c(C(F)(F)F)nc3cnc(-c4cccc(C(F)(F)C(F)(F)F)c4)cn23)ccc2[nH]ncc12`
88

###

# AUC(0-inf) values compiled below
# ASSAY PROTOCOL: Mouse pharmacokinetics;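 also: three mice per experiment, dosed in 10% DMSO with 50 mM Na2HPO4 buffer plus Tween-80, plasma levels quantified by LC-MS against a calibration line prepared in blank matrix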
# Format: in vivo
# RUN CONDITIONS: male, Swiss albino, plasma, 0.5 mg/kg iv, in a mixture of 5 compounds
Write it as a number; the unit ng·h/mL goes unstated.

# annotated cases, reported AUC(0-inf) shown
Param item = `Fc1ccc(-c2cn3c(-c4ccc5[nH]ncc5c4F)c(C(F)(F)F)nc3cn2)cc1C(F)(F)C(F)(F)F` ; retrieve measured AUC(0-inf).
2400

Request: `Fc1c(-c2c(C(F)(F)F)nc3cnc(-c4cccc(C(F)(F)C(F)(F)F)c4)cn23)ccc2[nH]ncc12`
6200

Next entry: `CC(C)c1cc(-c2cn3c(-c4ccc5[nH]ncc5c4F)c(C(F)(F)F)nc3cn2)ccc1F`
300

// query: `Fc1ccc(-c2cn3c(-c4ccc5[nH]ncc5c4F)c(C(F)(F)F)nc3cn2)cc1C(F)(F)F`
5500

Cool, now `CC(C)c1cc(-c2cn3c(-c4ccc5[nH]ncc5c4F)c(C4CC4)nc3cn2)ccc1F`
500

***
Recorded AUC(0-inf) of `CC(C)c1nc2cnc(-c3ccc(F)c(C(F)(F)F)c3)cn2c1-c1c(F)cc(O)cc1F` , please.
500

Next entry: `CC(C)Oc1cc(-c2cn3c(-c4ccc5[nH]ncc5c4F)c(C(F)(F)F)nc3cn2)ccc1F`
300

Thanks! And `CC(C)c1nn2cnc(-c3ccc(F)c(C(F)(F)F)c3)cc2c1-c1ccc2[nH]ncc2c1F` ?
1330

Do the same for `CC(C)c1nc2cnc(-c3ccc(F)c(C(F)(F)F)c3)cn2c1-c1ccc2[nH]ncc2c1F` please
1900

###

In this section, each of the compounds is paired with its reported solubility kinetic at 24 h.
# ASSAY PROTOCOL: Kinetic solubility
# Format: physicochemical
# RUN CONDITIONS: FeSSIF, pH 5; read-out: Kinetic solubility, FeSSIF
Answer format: numeric, µM implied, no suffix.

Below, each entry is followed by its recorded solubility kinetic at 24 h result.
What value of solubility kinetic at 24 h has been reported for the following compound? `CC(C)c1cc(-c2cn3c(-c4ccc5[nH]ncc5c4F)c(C4CC4)nc3cn2)ccc1F`
43.8

Do the same for `Fc1c(-c2c(C(F)(F)F)nc3cnc(-c4cccc(C(F)(F)C(F)(F)F)c4)cn23)ccc2[nH]ncc12` please
196

Param item: `Fc1ccc(-c2cn3c(-c4ccc5[nH]ncc5c4F)c(C(F)(F)F)nc3cn2)cc1C(F)(F)C(F)(F)F`
200

Next compound: `Fc1ccc(-c2cn3c(-c4ccc5[nH]ncc5c4F)c(C(F)(F)F)nc3cn2)cc1C(F)(F)F`
197

Could you now consider this next compound?
Given `CC(C)Oc1cc(-c2cn3c(-c4ccc5[nH]ncc5c4F)c(C(F)(F)F)nc3cn2)ccc1F` , state its recorded solubility kinetic at 24 h.
196

meta.source: paper PMC8321398
